The values you see were collected from patent US20230295212A1.

experimental.target: LINE1 reverse transcriptase (Homo sapiens)
Construct: expressed in transfected cells; host or cells: HeLa Tet-On 3G (Takara, cat no 631183)
Sequence (O00370 whole entry, looked up): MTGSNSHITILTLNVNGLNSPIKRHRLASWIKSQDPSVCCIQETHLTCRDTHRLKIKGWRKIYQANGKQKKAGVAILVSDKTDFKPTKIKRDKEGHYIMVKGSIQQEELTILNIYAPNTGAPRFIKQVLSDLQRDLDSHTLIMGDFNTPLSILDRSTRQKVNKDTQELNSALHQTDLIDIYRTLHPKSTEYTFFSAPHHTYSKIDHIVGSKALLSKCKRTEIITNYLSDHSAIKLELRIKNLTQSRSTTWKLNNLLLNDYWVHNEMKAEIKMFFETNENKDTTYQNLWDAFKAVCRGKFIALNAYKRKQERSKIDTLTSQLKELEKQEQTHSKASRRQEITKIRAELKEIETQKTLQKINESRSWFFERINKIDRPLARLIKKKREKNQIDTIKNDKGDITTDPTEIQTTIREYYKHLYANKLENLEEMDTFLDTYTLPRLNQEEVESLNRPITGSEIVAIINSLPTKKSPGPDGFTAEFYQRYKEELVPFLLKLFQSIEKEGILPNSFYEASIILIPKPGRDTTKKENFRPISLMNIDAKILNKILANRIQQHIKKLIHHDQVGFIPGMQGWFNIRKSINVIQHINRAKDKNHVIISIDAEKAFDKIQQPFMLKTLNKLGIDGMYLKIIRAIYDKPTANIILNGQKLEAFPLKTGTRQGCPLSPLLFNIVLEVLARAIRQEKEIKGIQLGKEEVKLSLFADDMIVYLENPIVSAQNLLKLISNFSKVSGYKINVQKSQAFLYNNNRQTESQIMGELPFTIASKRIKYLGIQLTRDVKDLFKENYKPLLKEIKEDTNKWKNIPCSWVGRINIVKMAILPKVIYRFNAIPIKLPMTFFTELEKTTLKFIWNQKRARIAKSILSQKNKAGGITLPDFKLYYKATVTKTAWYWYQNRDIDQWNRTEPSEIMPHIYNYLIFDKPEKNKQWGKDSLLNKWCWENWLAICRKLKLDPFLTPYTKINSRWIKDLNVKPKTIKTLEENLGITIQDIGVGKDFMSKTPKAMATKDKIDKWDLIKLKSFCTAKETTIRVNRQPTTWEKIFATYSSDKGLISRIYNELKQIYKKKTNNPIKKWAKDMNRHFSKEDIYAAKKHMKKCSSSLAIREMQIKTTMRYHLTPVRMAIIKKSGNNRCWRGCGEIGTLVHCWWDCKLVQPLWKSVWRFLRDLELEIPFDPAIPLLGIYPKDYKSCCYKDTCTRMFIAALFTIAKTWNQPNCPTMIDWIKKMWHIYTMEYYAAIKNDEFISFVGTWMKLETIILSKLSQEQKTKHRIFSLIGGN
assay.protocol: Stable artificial-intron Cis LINE1 reporter assay (HeLa Tet-On 3G, Firefly luciferase)
Assay type: cell-based
condition.label: HeLa L1 artificial-intron reporter cells, doxycycline 500 ng/mL, 72 h, class symbols
pIC50: −log10 of the molar value.
Below, each entry is listed alongside its reported pIC50.
measurement.kind: pIC50

In [3]: df
Out[3]:
                                 test_smiles  measurement_kind        result
 0  Nc1ccn([C@H]2C[C@H](O)[C@](CO)(C(F)(F)F)O2)c(=O)n1             pIC50  6.00 to 6.60
 1  Nc1ccn([C@H]2C[C@H](O)[C@](CO)(C3CC3)O2)c(=O)n1             pIC50  6.00 to 6.60
 2  C#C[C@]1(CO)O[C@@H](n2ccc(N)nc2=O)[C@@H](F)[C@@H]1O             pIC50        ≥ 7.30
 3  CC[C@]1(CO)O[C@@H](n2cnc3c(N)nc(F)nc32)[C@@H](F)[C@@H]1O             pIC50  6.60 to 7.00
 4  C#C[C@]1(CO)O[C@@H](n2ccc(=O)[nH]c2=O)[C@H](F)[C@@H]1O             pIC50        < 6.00
 5  Nc1cnn([C@H]2C[C@H](O)[C@](CO)(CCl)O2)c(=O)n1             pIC50        < 6.00
 6  C[C@]1(CO)O[C@@H](n2ccc(N)nc2=O)C[C@@H]1O             pIC50        ≥ 7.30
 7  C#C[C@]1(CO)O[C@@H](n2ccc(=O)[nH]c2=O)[C@@H](F)[C@@H]1O             pIC50        < 6.00
 8  O=c1ccn([C@@H]2OC(CO)(CO)[C@@H](O)[C@@H]2F)c(=O)[nH]1             pIC50        < 6.00
 9  Cc1cn([C@H]2C[C@H](O)[C@](CO)(CCl)O2)c(=O)nc1N             pIC50        < 6.00
10  Nc1nc(=O)n([C@H]2C[C@H](O)[C@](CO)(CCl)O2)cc1F             pIC50        ≥ 7.30
11  CCC[C@]1(CO)O[C@@H](n2ccc(N)nc2=O)C[C@@H]1O             pIC50        < 6.00
12  [2H]C([2H])(Cl)[C@]1(CO)O[C@@H](n2cc(F)c(N)nc2=O)[C@@H](F)[C@@H]1O             pIC50        ≥ 7.30
13  C#C[C@]1(CO)O[C@@H](n2cnc3c(N)nc(F)nc32)C[C@@H]1O             pIC50        ≥ 7.30
14  CC[C@]1(CO)O[C@@H](n2cc(F)c(N)nc2=O)C[C@@H]1O             pIC50        ≥ 7.30
15  C#C[C@]1(CO)O[C@@H](n2cc(C)c(=O)[nH]c2=O)C[C@@H]1O             pIC50        < 6.00
16  Nc1nc(=O)n([C@@H]2O[C@@](CO)(CF)[C@@H](O)[C@@H]2F)cc1F             pIC50  7.00 to 7.30
